Test system: RAW 264.7 cells
measurement.description: Quantitative cell-permeability of FITC-labeled aMTD- or rPeptide-fused CRA recombinant proteins (flow cytometry)
Format: cell-based
experimental.context: cell-permeability of aMTD-fused CRA recombinant protein relative to reference CPP (C: MTD85)
Field: label. Allowed values: criterion met (Relative Ratio (Fold) C < 8 Fold) or criterion not met (Relative Ratio (Fold) C >= 8 Fold).

**Q:** Dear reviewer, please state whether 391 (VVAIVLPAVAAP; Amino acid Sequence of aMTD381) [compound 391] has Relative Ratio (Fold) C strictly beneath 8 Fold.
**A:** criterion met

**Q:** Strictly below 8 Fold: is that where Relative Ratio (Fold) C of 564 (VAIALIVPALAP; Amino acid Sequence of aMTD564) [compound 564] sits?
**A:** criterion not met

**Q:** Consider 545 (VVLVLAAPAAVP; Amino acid Sequence of aMTD545) [compound 545] . Does its Relative Ratio (Fold) C lie strictly below 8 Fold?
**A:** criterion not met

**Q:** Relative Ratio (Fold) C under 8 Fold? Item: 285 (AIVLLPAAVVAP; Amino acid Sequence of aMTD285) [compound 285]
**A:** criterion met

**Q:** Quick check: Relative Ratio (Fold) C of 542 (ALALIIVPAVAP; Amino acid Sequence of aMTD542) [compound 542] under 8 Fold?
**A:** criterion met

**Q:** A record lists 404 (LAAAVIPAAILP; Amino acid Sequence of aMTD404) [compound 404] . Is its Relative Ratio (Fold) C below 8 Fold?
**A:** criterion met

**Q:** State whether 8 Fold exceeds Relative Ratio (Fold) C recorded for 342 (VIVALAPAVLAP; Amino acid Sequence of aMTD342) [compound 342] .
**A:** criterion met

====

Please provide measured Relative Ratio (Fold) B for the entries that follow.
System: RAW 264.7 cells
measurement.description: Quantitative cell-permeability of FITC-labeled aMTD- or rPeptide-fused CRA recombinant proteins (flow cytometry)
Type: cell-based
experimental.context: relative cell-permeability of rPeptide vs reference CPP B: MTM12
Your answer is read as Fold, so omit the unit and give the number.

**Q:** Which Relative Ratio (Fold) B is listed for 921 (IWWFVVLPLVVP; Amino acid Sequence of rPeptide ID 921) [compound 921] ?
**A:** 1.9

**Q:** Look at this substance and give its reported Relative Ratio (Fold) B. 29 (VLPPLPVLPVLP; Amino acid Sequence of rPeptide ID 29) [compound 29]
**A:** 0.9

**Q:** Quick one: Relative Ratio (Fold) B of 67 (LDAEVPLADDVP; Amino acid Sequence of rPeptide ID 67) [compound 67] ?
**A:** 0.9

**Q:** // lookup Relative Ratio (Fold) B for 16 (NNSCTTYTNGSQ; Amino acid Sequence of rPeptide ID 16) [compound 16]
**A:** 1.1

**Q:** Which measured Relative Ratio (Fold) B value corresponds to 700 (GTSNTCQSNQNS; Amino acid Sequence of rPeptide ID 700) [compound 700] ?
**A:** 0.6

====

Give measured Relative Ratio (Fold) C for each item. Keep answers brief.
Test system: RAW 264.7 cells
measurement.description: Quantitative cell-permeability of FITC-labeled aMTD- or rPeptide-fused CRA recombinant proteins (flow cytometry)
Format: cell-based
experimental.context: cell-permeability of aMTD-fused CRA recombinant protein relative to reference CPP (C: MTD85)
Kindly answer with a numeric value in Fold, unit omitted.

**Q:** Quick one: Relative Ratio (Fold) C for 365 (AVIVVAPALLAP; Amino acid Sequence of aMTD365) [compound 365] ?
**A:** 3.1

**Q:** Param item = 21 (AVALLPALLAVP; Amino acid Sequence of aMTD21) [compound 21] ; retrieve measured Relative Ratio (Fold) C.
**A:** 6.4

**Q:** For the substance shown here, 882 (AIALVVPAVAVP; Amino acid Sequence of aMTD882) [compound 882] , give the reported Relative Ratio (Fold) C.
**A:** 11.8

**Q:** Give its Relative Ratio (Fold) C value. Item: 865 (AVLVIAVPAIAP; Amino acid Sequence of aMTD865) [compound 865]
**A:** 3.8

**Q:** Reported Relative Ratio (Fold) C for 401 (AALAVIPAAILP; Amino acid Sequence of aMTD401) [compound 401] : what is it?
**A:** 3.6

**Q:** Request the reported Relative Ratio (Fold) C associated with 828 (IALLAAPIIAVP; Amino acid Sequence of aMTD828) [compound 828]
**A:** 12.4

**Q:** # get_value(readout='Relative Ratio (Fold) C', item= 905 (AVIAVAPLVVAP; Amino acid Sequence of aMTD905) [compound 905] )
**A:** 14.9

**Q:** I would be grateful if you could share the reported Relative Ratio (Fold) C for 896 (AILIVVAPIAAP; Amino acid Sequence of aMTD896) [compound 896] .
**A:** 19.4

**Q:** Entry 64 (AIVALPVAVLAP; Amino acid Sequence of aMTD64) [compound 64] : reported Relative Ratio (Fold) C = ?
**A:** 5.3

**Q:** What Relative Ratio (Fold) C value was documented for this substance, 767 (IVVAAVVPALAP; Amino acid Sequence of aMTD767) [compound 767] ?
**A:** 2.9

**Q:** Need Relative Ratio (Fold) C of 312 (VALLAPAVVVAP; Amino acid Sequence of aMTD912) [compound 312] , thanks.
**A:** 6.7

**Q:** Returns the measured Relative Ratio (Fold) C for the input substance. Input: 661 (AAILAPIVAALP; Amino acid Sequence of aMTD661) [compound 661]
**A:** 7.2

**Q:** Name the reported Relative Ratio (Fold) C value associated with the substance 687 (AILAVALPLLAP; Amino acid Sequence of aMTD687) [compound 687]
**A:** 4.1

**Q:** Dear colleague, I am looking for the recorded Relative Ratio (Fold) C of the following substance: 703 (IVAVALVPALAP; Amino acid Sequence of aMTD703) [compound 703]
**A:** 9.9

**Q:** Value lookup for Relative Ratio (Fold) C; key = 582 (VAVALIVPALAP; Amino acid Sequence of aMTD582) [compound 582]
**A:** 10.3

**Q:** State the recorded Relative Ratio (Fold) C for this entry: 425 (AVVAIAPVLALP; Amino acid Sequence of aMTD425) [compound 425]
**A:** 3.2

**Q:** Report Relative Ratio (Fold) C for 464 (AVVILVPLAAAP; Amino acid Sequence of aMTD464) [compound 464] please.
**A:** 7.5
